Ref: the supplement of paper PMC11208160

- experimental.details: recombinant UMI read abundance after kanamycin selection (control-corrected) (log10(CPM+1)); higher = more efficient recombination; extreme values may be limits of the assay; sequences stand for … in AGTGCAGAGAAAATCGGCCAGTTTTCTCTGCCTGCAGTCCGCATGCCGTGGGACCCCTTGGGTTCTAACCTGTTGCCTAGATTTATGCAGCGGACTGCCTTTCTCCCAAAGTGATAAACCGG…AGGTTGGTTTCACT; site = the 11-nt donor;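 also: IS621 bridge recombinase in Escherichia coli cells against a fixed T5 target plasmid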
Please use t whenever recombinant UMI read abundance (log10) is not below 0.01, and f whenever it is.

| sequence.content | category |
| --- | --- |
| TACAAACCATGGACCGGTTTTCCCGGTAATCCGTATTTGGT (site AACAAACCTAC) | f |
| CGGAAACCATGGACCGGTTTTCCCGGTAATCCGTATTTGTT (site CGGAAACCTAA) | f |
| CAAGCGCCATGGACCGGTTTTCCCGGTAATCCGTATTTGCG (site CAAGCGCCTCT) | f |
| GGCTACTCATGGACCGGTTTTCCCGGTAATCCGTATTTGCT (site GGCTACTCTAG) | t |
| CGATCGACATGGACCGGTTTTCCCGGTAATCCGTATTTGTA (site CGATCGACTAA) | f |
| TCTAGTGCATGGACCGGTTTTCCCGGTAATCCGTATTTGGT (site CCTAGTGCTAC) | t |
| CTATTAACATGGACCGGTTTTCCCGGTAATCCGTATTTGGA (site CTACTAACTTC) | t |
| TGCCAGGCATGGACCGGTTTTCCCGGTAATCCGTATTTGGT (site TGCTAGGCTAC) | t |
| AAAACCACATGGACCGGTTTTCCCGGTAATCCGTATTTGCT (site AAAACCACTAG) | t |
| CTAGAAACATGGACCGGTTTTCCCGGTAATCCGTATTTGCA (site CTGGAAACTTG) | t |

Q: # check: recombinant UMI read abundance (log10) of GAATATGCATGGACCGGTTTTCCCGGTAATCCGTATTTGAA (site GAATATGCTTT) is greater than or equal to 0.01
Ans: t

Q: Subsequent entry: CGATCAACATGGACCGGTTTTCCCGGTAATCCGTATTTGCT (site CGATCAACTAG)
Ans: t
